test system: Human LDL; experiment: Antioxidative activity (inhibition of MDA formation in cupric sulfate-induced peroxidation of LDL); format: biochemical; conditions: compound 10^-5 M, cupric sulfate 5×10^-6 M, 5 hrs, percent inhibition of MDA formation vs control
Classify by measured Antioxidant Activity (%): Met if it is equal to or exceeds 80%, Not met if it is smaller.

Below are worked cases with known answers.
State whether the measured Antioxidant Activity (%) reaches 80%, counting equality as reaching it, for CC(C)(C)c1cc(C(=O)Nc2ccccc2NC(=O)N(Cc2ccccc2)Cc2ccccc2)cc(C(C)(C)C)c1O [Example 8]
Met

Thanks! And CCCCCCCNC(=O)Nc1ccccc1NCc1cc(C(C)(C)C)c(O)c(C(C)(C)C)c1 [Example 14] ?
Met

Thanks! And CCCCCCCNC(=O)Nc1cc(OC)ccc1NC(=O)c1cc(C(C)(C)C)c(O)c(C(C)(C)C)c1 [Example 36] ?
Met

Further cases:
State whether the measured Antioxidant Activity (%) reaches 80%, counting equality as reaching it, for CC(C)(C)c1cc(C(=O)Nc2ccccc2NC(=O)NCC(c2ccccc2)c2ccccc2)cc(C(C)(C)C)c1O [Example 7]
Not met
